Test: in vitro
Format: cell-based, bovine
Details: bovine
Peptide text beside a SMILES is read from it.
property-name: hemolysis at 1 h, 150 µM (%)
Answers are plain numbers, in %.

CC(C)C[C@H](NC(=O)[C@H](CCCCN)NC(=O)[C@H](Cc1cccc2ccccc12)NC(=O)[C@H](Cc1ccccc1)NC(=O)[C@@H](N)Cc1cccc2ccccc12)C(=O)N[C@@H](CCCCN)C(=O)N[C@@H](CCCCN)C(N)=O [Compound 16] (HELM PEPTIDE1{[N[C@@H](Cc1cccc2ccccc12)C(=O)[*:2]].F.[O=C([C@H](Cc1cccc2ccccc12)N[*:1])[*:2]].K.L.K.K.[am]}$$$$V2.0) = 30.6

// next item, hemolysis at 1 h, 150 µM requested
Answer with the recorded hemolysis at 1 h, 150 µM of CC(C)C[C@H](NC(=O)[C@H](CCCCN)NC(=O)[C@@H](N)CCCCN)C(=O)N[C@@H](CCCCN)C(=O)N[C@@H](Cc1ccc2ccccc2c1)C(=O)N[C@@H](Cc1ccccc1)C(=O)N[C@@H](Cc1ccc2ccccc2c1)C(N)=O [Compound 1] (HELM PEPTIDE1{K.K.L.K.[O=C([C@H](Cc1ccc2ccccc2c1)N[*:1])[*:2]].F.[O=C([C@H](Cc1ccc2ccccc2c1)N[*:1])[*:2]].[am]}$$$$V2.0) only. 32.5

----------
Experiment: in vitro
Format: cell-based, rat (Sprague–Dawley)
Settings: Sprague-Dawley, rat
Square brackets hold non-standard residues; d marks the D form. Peptide text beside a SMILES is read from it. N(1-naphthylmethyl)Gly = O=C(O)CNCc1cccc2ccccc12; 2Nal = N[C@@H](Cc1ccc2ccccc2c1)C(=O)O; Nphe = O=C(O)CNCc1ccccc1; NBuGly = CCCCNCC(=O)O; Nlys = NCCCCNCC(=O)O
property-name: hemolysis at 1 h, 150 µM

CCCCN(CC(=O)N[C@@H](CCCCN)C(=O)N(CC(=O)N(CC(=O)N(CC(N)=O)Cc1cccc2ccccc12)Cc1ccccc1)Cc1cccc2ccccc12)C(=O)[C@H](CCCCN)NC(=O)[C@@H](N)CCCCN [Compound 14] (H-KK[NBuGly]K[N(1-naphthylmethyl)Gly][Nphe][N(1-naphthylmethyl)Gly]-NH2) = 31.6%
CC(C)C[C@@H](NC(=O)[C@H](CCCCN)NC(=O)[C@@H](Cc1ccc2ccccc2c1)NC(=O)[C@@H](Cc1ccccc1)NC(=O)[C@H](N)Cc1ccc2ccccc2c1)C(=O)N[C@@H](CCCCN)C(=O)N[C@@H](CCCCN)C(N)=O [Compound 3] (HELM PEPTIDE1{[N[C@H](Cc1ccc2ccccc2c1)C(=O)[*:2]].[dF].[O=C([C@@H](Cc1ccc2ccccc2c1)N[*:1])[*:2]].K.[dL].K.K.[am]}$$$$V2.0) = < 8%
CC(C)C[C@H](NC(=O)CN(CCCCN)C(=O)CN(CCCCN)C(=O)CNCCCCN)C(=O)N[C@@H](Cc1ccc2ccccc2c1)C(=O)N[C@@H](Cc1ccccc1)C(=O)N[C@@H](Cc1ccc2ccccc2c1)C(N)=O [Compound 23] (H-[Nlys][Nlys][Nlys]L[2Nal]F[2Nal]-NH2) = < 8%
CC(C)C[C@@H](NC(=O)[C@H](CCCCN)NC(=O)[C@H](CCCCN)NC(=O)[C@@H](N)CCCCN)C(=O)N[C@H](Cc1ccc2ccccc2c1)C(=O)N[C@H](Cc1ccc(O)cc1)C(=O)N[C@H](Cc1ccc2ccccc2c1)C(N)=O [Compound 24] (HELM PEPTIDE1{K.K.K.[dL].[O=C([C@@H](Cc1ccc2ccccc2c1)N[*:1])[*:2]].[dY].[O=C([C@@H](Cc1ccc2ccccc2c1)N[*:1])[*:2]].[am]}$$$$V2.0) = < 8%
CC(C)C[C@@H](NC(=O)[C@H](CCCCN)NC(=O)[C@H](CCCCN)NC(=O)[C@@H](N)CCCCN)C(=O)N[C@H](Cc1ccc2ccccc2c1)C(=O)N[C@H](Cc1ccccc1)C(=O)N[C@H](Cc1ccc2ccccc2c1)C(N)=O [Compound 12] (HELM PEPTIDE1{K.K.K.[dL].[O=C([C@@H](Cc1ccc2ccccc2c1)N[*:1])[*:2]].[dF].[O=C([C@@H](Cc1ccc2ccccc2c1)N[*:1])[*:2]].[am]}$$$$V2.0) = 17.9%
CCCC[C@H](NC(=O)[C@H](CCCCN)NC(=O)[C@H](CCCCN)NC(=O)[C@@H](N)CCCCN)C(=O)N[C@@H](Cc1cccc2ccccc12)C(=O)N[C@@H](Cc1ccccc1)C(=O)N[C@@H](Cc1cccc2ccccc12)C(N)=O [Compound 20] (HELM PEPTIDE1{K.K.K.[Nle].[O=C([C@H](Cc1cccc2ccccc12)N[*:1])[*:2]].F.[O=C([C@H](Cc1cccc2ccccc12)N[*:1])[*:2]].[am]}$$$$V2.0) = < 8%

Hi there! I need hemolysis at 1 h, 150 µM for each item below, if you can.
1. CC(C)C[C@@H](NC(=O)[C@@H](Cc1ccc2ccccc2c1)NC(=O)[C@@H](Cc1ccccc1)NC(=O)[C@H](N)Cc1ccc2ccccc2c1)C(=O)N[C@@H](CCCCN)C(=O)N[C@@H](CCCCN)C(=O)N[C@@H](CCCCN)C(N)=O [Compound 4] (HELM PEPTIDE1{[N[C@H](Cc1ccc2ccccc2c1)C(=O)[*:2]].[dF].[O=C([C@@H](Cc1ccc2ccccc2c1)N[*:1])[*:2]].[dL].K.K.K.[am]}$$$$V2.0)
2. CC(C)C[C@H](NC(=O)[C@H](Cc1cccc2ccccc12)NC(=O)[C@H](Cc1ccccc1)NC(=O)[C@@H](N)Cc1cccc2ccccc12)C(=O)N[C@@H](CCCCN)C(=O)N[C@@H](CCCCN)C(=O)N[C@@H](CCCCN)C(N)=O [Compound 5] (HELM PEPTIDE1{[N[C@@H](Cc1cccc2ccccc12)C(=O)[*:2]].F.[O=C([C@H](Cc1cccc2ccccc12)N[*:1])[*:2]].L.K.K.K.[am]}$$$$V2.0)

< 8%
10.2%

Hi there! I need hemolysis at 1 h, 150 µM for each item below, if you can.
1. CC(C)C[C@H](NC(=O)[C@H](CCCCN)NC(=O)[C@H](CCCCN)NC(=O)[C@@H](N)CCCCN)C(=O)N[C@@H](Cc1ccc2ccccc2c1)C(=O)N[C@@H](Cc1ccc(O)cc1)C(=O)N[C@@H](Cc1ccc2ccccc2c1)C(N)=O [Compound 17] (HELM PEPTIDE1{K.K.K.L.[O=C([C@H](Cc1ccc2ccccc2c1)N[*:1])[*:2]].Y.[O=C([C@H](Cc1ccc2ccccc2c1)N[*:1])[*:2]].[am]}$$$$V2.0)
2. CCCC[C@H](NC(=O)[C@H](CCCCN)NC(=O)[C@H](CCCCN)NC(=O)[C@@H](N)CCCCN)C(=O)N[C@@H](Cc1ccc2ccccc2c1)C(=O)N[C@@H](Cc1ccc(O)cc1)C(=O)N[C@@H](Cc1ccc2ccccc2c1)C(N)=O [Compound 22] (HELM PEPTIDE1{K.K.K.[Nle].[O=C([C@H](Cc1ccc2ccccc2c1)N[*:1])[*:2]].Y.[O=C([C@H](Cc1ccc2ccccc2c1)N[*:1])[*:2]].[am]}$$$$V2.0)
3. CC(C)C[C@H](NC(=O)[C@H](CCCCN)NC(=O)[C@H](Cc1ccc2ccccc2c1)NC(=O)[C@H](Cc1ccccc1)NC(=O)[C@@H](N)Cc1ccc2ccccc2c1)C(=O)N[C@@H](CCCCN)C(=O)N[C@@H](CCCCN)C(N)=O [Compound 13] (HELM PEPTIDE1{[N[C@@H](Cc1ccc2ccccc2c1)C(=O)[*:2]].F.[O=C([C@H](Cc1ccc2ccccc2c1)N[*:1])[*:2]].K.L.K.K.[am]}$$$$V2.0; N-terminus assumed)

["100%", "24.2%", "< 8%"]

Answer with the recorded hemolysis at 1 h, 150 µM of CC(C)C[C@@H](NC(=O)[C@H](CCCCN)NC(=O)[C@H](CCCCN)NC(=O)[C@@H](N)CCCCN)C(=O)N[C@H](Cc1cccc2ccccc12)C(=O)N[C@H](Cc1ccccc1)C(=O)N[C@H](Cc1cccc2ccccc12)C(N)=O [Compound 11] (HELM PEPTIDE1{K.K.K.[dL].[O=C([C@@H](Cc1cccc2ccccc12)N[*:1])[*:2]].[dF].[O=C([C@@H](Cc1cccc2ccccc12)N[*:1])[*:2]].[am]}$$$$V2.0) only. 11.3%
